Overview of reported Dmax across a group of compounds:
# MEASUREMENT_TARGET: IKZF2 (Homo sapiens (Human), UniProt Q96SW2+Q9UKS7)
# Sequence (Q9UKS7 whole entry): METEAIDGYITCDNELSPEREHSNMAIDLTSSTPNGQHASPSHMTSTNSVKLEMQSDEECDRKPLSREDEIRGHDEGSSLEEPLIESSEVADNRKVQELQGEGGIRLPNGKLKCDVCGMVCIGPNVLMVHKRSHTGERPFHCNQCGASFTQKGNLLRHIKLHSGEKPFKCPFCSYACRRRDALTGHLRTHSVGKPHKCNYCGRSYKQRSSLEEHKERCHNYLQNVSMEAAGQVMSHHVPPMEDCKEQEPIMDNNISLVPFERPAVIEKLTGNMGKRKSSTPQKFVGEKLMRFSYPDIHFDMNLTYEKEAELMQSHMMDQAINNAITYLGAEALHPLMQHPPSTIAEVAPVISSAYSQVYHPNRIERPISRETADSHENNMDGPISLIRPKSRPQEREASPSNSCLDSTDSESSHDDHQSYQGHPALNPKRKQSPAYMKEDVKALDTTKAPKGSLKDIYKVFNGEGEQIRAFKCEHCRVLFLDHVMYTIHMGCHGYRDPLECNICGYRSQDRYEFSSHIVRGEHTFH
# Sequence (Q96SW2 whole entry): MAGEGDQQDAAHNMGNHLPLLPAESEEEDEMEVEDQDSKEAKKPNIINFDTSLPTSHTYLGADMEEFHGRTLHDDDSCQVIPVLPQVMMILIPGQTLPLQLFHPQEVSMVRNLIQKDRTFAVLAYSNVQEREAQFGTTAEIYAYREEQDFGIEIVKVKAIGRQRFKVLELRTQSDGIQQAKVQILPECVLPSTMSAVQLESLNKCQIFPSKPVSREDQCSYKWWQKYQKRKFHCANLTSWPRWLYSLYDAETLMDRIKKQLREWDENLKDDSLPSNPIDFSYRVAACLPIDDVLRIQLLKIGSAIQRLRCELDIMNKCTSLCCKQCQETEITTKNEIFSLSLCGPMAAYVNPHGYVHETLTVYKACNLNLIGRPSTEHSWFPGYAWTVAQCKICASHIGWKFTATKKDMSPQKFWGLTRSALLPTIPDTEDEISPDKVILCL
# Sequence (Q16531 whole entry partner): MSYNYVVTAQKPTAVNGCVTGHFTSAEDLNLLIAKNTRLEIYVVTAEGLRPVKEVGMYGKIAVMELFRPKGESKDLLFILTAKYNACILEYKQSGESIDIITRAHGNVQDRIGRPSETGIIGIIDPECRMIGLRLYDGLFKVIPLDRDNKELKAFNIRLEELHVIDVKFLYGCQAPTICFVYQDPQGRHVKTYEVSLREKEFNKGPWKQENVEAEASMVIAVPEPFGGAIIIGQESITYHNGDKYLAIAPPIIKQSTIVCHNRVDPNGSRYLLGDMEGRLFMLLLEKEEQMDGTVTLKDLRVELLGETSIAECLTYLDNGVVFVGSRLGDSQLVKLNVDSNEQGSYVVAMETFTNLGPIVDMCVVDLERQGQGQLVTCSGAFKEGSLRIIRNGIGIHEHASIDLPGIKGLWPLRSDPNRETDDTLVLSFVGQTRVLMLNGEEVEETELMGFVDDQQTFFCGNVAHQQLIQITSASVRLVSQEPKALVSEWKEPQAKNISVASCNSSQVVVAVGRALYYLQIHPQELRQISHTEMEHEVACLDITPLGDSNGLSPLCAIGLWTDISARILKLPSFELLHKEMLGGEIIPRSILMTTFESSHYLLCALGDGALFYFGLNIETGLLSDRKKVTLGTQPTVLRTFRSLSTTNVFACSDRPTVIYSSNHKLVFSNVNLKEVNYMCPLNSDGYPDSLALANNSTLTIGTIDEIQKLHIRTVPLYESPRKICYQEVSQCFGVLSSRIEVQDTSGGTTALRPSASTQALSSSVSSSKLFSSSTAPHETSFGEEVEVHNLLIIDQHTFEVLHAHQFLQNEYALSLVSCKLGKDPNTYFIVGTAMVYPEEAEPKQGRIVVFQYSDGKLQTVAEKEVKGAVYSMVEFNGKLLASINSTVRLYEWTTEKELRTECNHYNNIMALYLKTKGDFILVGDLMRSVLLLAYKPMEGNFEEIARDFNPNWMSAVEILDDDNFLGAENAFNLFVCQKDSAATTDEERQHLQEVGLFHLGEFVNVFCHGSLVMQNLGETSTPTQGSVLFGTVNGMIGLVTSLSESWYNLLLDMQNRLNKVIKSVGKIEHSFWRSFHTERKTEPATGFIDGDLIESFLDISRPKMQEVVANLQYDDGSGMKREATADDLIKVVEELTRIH
# TEST_DESCRIPTION: IKZF2 HiBiT Assay (Jurkat-IKZF2-HiBiT cell line)
# Type: cell-based
# CONDITION_INFO: Jurkat-IKZF2-HiBiT cells, 24 hours; read-out: HiBit assay degradation analysis Dmax

Solved cases (2 shown):
| COMPOUND | Dmax |
| --- | --- |
| Cn1ncc(-c2cccc(CN3CCC4(CC3)COc3c4ccc4c3CN([C@H]3CCC(=O)NC3=O)C4=O)c2)n1 | 60 to 80% |
| O=C1CCC(N2Cc3c(ccc4c3OCC43CCN(Cc4cccc5c4CCCO5)CC3)C2=O)C(=O)N1 (centres unmarked) | 60 to 80% |

Prompt line: Given the entry `O=C1CC[C@H](N2Cc3c(ccc4c3OCC43CCN(Cc4cc(F)cc(-c5cnn(C6COC6)c5)c4)CC3)C2=O)C(=O)N1` , report its measured Dmax.
Response line: 40 to 60%

Prompt line: Given the compound CC(C)c1cccc(CN2CCC3(CC2)COc2c3ccc3c2CN(C2CCC(=O)NC2=O)C3=O)c1 (centres unmarked) , what is its reported Dmax?
Response line: < 40%

Prompt line: For O=C1CCC(N2Cc3c(ccc4c3OCC43CCN(CC4CCC(c5ccccc5)CC4)CC3)C2=O)C(=O)N1 (centres unmarked) , what is its reported Dmax?
Response line: 60 to 80%

Prompt line: What does the data say about its Dmax? Entry: O=C1CCC(N2Cc3c(ccc4c3OCC43CCN(Cc4cnn(-c5ccccc5)c4)CC3)C2=O)C(=O)N1 (centres unmarked)
Response line: 40 to 60%

Prompt line: Suppose we examine the compound O=C1CCC(N2Cc3c(ccc4c3OCCC43CCN(Cc4ccccc4)CC3)C2=O)C(=O)N1 (centres unmarked) ; what Dmax value has been reported?
Response line: < 40%

All figures here come from patent US20250215012A1.
